Data provenance: patent US4261883A

System: guinea pig ileum
assay method text: guinea pig ileum test (inhibition of voltage induced contractions)
Format: cell-based
test conditions: Cavia porcellus, read-out: I.D.50 in the guinea pig ileum test
endpoint name: pIC50
Give only the number. pIC50 is defined as minus log10 of concentration in molar units.

Q: Value wanted: pIC50 (guinea pig ileum) of entry Oc1ccc2c3c1O[C@H]1[C@@H](O)C=C[C@H]4[C@@H](C2)NCC[C@@]341 [normorphine]
A: 6.92
